These data points were gathered from ChEMBL document CHEMBL1146939.

System: Human immunodeficiency virus 1
PROCEDURE TEXT: Antiviral activity against HIV1 in HEK293T cells
Format: functional, organism-based
MEASUREMENT CONTEXT: Human immunodeficiency virus 1, HEK-293T
REPORTED ENDPOINT: EC50

Before answering, review these 5 worked examples.
Item O=C1Nc2ccc(Cl)cc2[C@@]12C[C@@H]2c1cccc[n+]1[O-] ; assay system Human immunodeficiency virus 1; EC50 reported as > 10000 nM

Item Cc1cc([C@H]2C[C@]23C(=O)Nc2ccc(Cl)cc23)oc1C ; assay system Human immunodeficiency virus 1; EC50 reported as 27 nM

Item O=C1Nc2ccc(Cl)cc2[C@@]12C[C@@H]2c1ccncc1 ; assay system Human immunodeficiency virus 1; EC50 reported as > 10000 nM

Item C=Cc1cccc([C@H]2C[C@]23C(=O)Nc2ccc(Cl)cc23)n1 ; assay system Human immunodeficiency virus 1; EC50 reported as 5 nM

Item Cn1ccnc1[C@H]1C[C@]12C(=O)Nc1ccc(Cl)cc12 ; assay system Human immunodeficiency virus 1; EC50 reported as > 10000 nM

---
Item O=C1Nc2ccc(Cl)cc2[C@@]12C[C@@H]2c1ccc(F)cc1 ; assay system Human immunodeficiency virus 1; EC50 reported as > 10000 nM

Item O=C1Nc2ccc(Cl)cc2[C@@]12C[C@@H]2c1nccs1 ; assay system Human immunodeficiency virus 1; EC50 reported as > 10000 nM

Item O=C1Nc2ccc(Cl)cc2[C@@]12C[C@@H]2c1cccc(-c2cccs2)n1 ; assay system Human immunodeficiency virus 1; EC50 reported as 16 nM

Item O=C1Nc2ccc(Cl)cc2[C@@]12C[C@@H]2c1cccc(Br)n1 ; assay system Human immunodeficiency virus 1; EC50 reported as 23 nM
